- Tested on: rat jejunal mucosa
- methodNotes: LPS mucosal-to-serosal transport in Ussing-chambered rat jejunal mucosa (LAL test)
- Assay type: cell-based
- recordedConditions: mucosal LPS 10 μg/ml; drug added 10 or 15 min before LPS
measuredProperty: LPS transport at t=15 min (LPS alone, absence of OA/TCA)

[[record]]
compound = "CCCCCCCC/C=C\\CCCCCCCC(=O)ON1C(=O)CC(S(=O)(=O)O)C1=O (stereo not shown) [SSO, sulfosuccinimidyl oleate]"
studytarget = "rat jejunal mucosa"
result = "no effect"

[[record]]
compound = "N#Cc1ccc(NCCNCC(=O)N2CCC[C@H]2C#N)nc1"
studytarget = "rat jejunal mucosa"
result = "no effect"

[[record]]
compound = "O=P(O)(O)OCC(O)CO (stereo not shown) [GP, glycerol phosphate]"
studytarget = "rat jejunal mucosa"
result = "no effect"

